Listing: pest or weed control at 125 g/ha of selected molecules
- Tested on: Setaria faberi (SETFA)
- method notes: Post-emergence herbicidal activity, glasshouse pot test
- Format: in vivo
- test settings: 360 h, rate 125 g/ha, evaluated 15 days later, 100=total damage to plant, 0=no damage to plant
endpoint label: pest or weed control at 125 g/ha (%)

molecule: Cc1cc(-c2ccccc2)cc(C)c1C1C(=O)[C@@H]2[C@H](C1=O)[C@@]1(C)CC[C@]2(C)O1 (stereo partly shown)
endpoint label: pest or weed control at 125 g/ha
unit of measurement: %
test value: 90
--
molecule: CCc1ccc(-c2ccc(Cl)cc2C)cc1C1=C(O)[C@H]2[C@@H](C1=O)[C@@H]1CC[C@H]2O1
endpoint label: pest or weed control at 125 g/ha
unit of measurement: %
test value: 80
--
molecule: CCc1ccc(-c2ccc(Cl)c(OC)c2)cc1C1=C(O)[C@H]2[C@@H](C1=O)[C@@H]1CC[C@H]2O1
endpoint label: pest or weed control at 125 g/ha
unit of measurement: %
test value: 100
--
molecule: CCc1cc(-c2ccc(C)cc2)cc(CC)c1C1C(=O)[C@@H]2[C@H](C1=O)[C@H]1CC[C@@H]2O1 (stereo partly shown)
endpoint label: pest or weed control at 125 g/ha
unit of measurement: %
test value: 70
--
molecule: CCc1ccc(-c2ccc(Cl)c(Cl)c2)cc1C1=C(O)[C@H]2[C@@H](C1=O)[C@@H]1CC[C@H]2O1
endpoint label: pest or weed control at 125 g/ha
unit of measurement: %
test value: 100
--
molecule: CCc1ccc(-c2ccc(Cl)cc2Cl)cc1C1=C(O)[C@H]2[C@@H](C1=O)[C@@H]1CC[C@H]2O1 (racemic)
endpoint label: pest or weed control at 125 g/ha
unit of measurement: %
test value: 100
--
molecule: CCc1ccc(-c2ccc(Cl)cc2C)cc1C1=C(O)[C@H]2[C@@H](C1=O)[C@]1(C)CC[C@@]2(C)O1
endpoint label: pest or weed control at 125 g/ha
unit of measurement: %
test value: 100
--
molecule: Cc1cc(-c2ccccc2)cc(C)c1C1C(=O)[C@H]2[C@@H]3CC[C@@](C)(O3)[C@H]2C1=O (stereo partly shown)
endpoint label: pest or weed control at 125 g/ha
unit of measurement: %
test value: 100
--
molecule: CCc1ccc(-c2ccc(Cl)c(Cl)c2F)cc1C1=C(O)[C@H]2[C@@H](C1=O)[C@]1(C)CC[C@@]2(C)O1
endpoint label: pest or weed control at 125 g/ha
unit of measurement: %
test value: 80
--
molecule: CCc1ccc(-c2ccc(Cl)nc2Cl)cc1C1=C(O)[C@H]2[C@@H](C1=O)[C@@H]1CC[C@H]2O1
endpoint label: pest or weed control at 125 g/ha
unit of measurement: %
test value: 90
--
molecule: Cc1cc(-c2ccccc2)cc(C)c1C1=C(OC(=O)C(C)(C)C)[C@H]2[C@@H](C1=O)[C@]1(C)CC[C@H]2O1
endpoint label: pest or weed control at 125 g/ha
unit of measurement: %
test value: 100
--
molecule: Cc1cc(-c2ccccc2)cc(C)c1C1=C(OC(=O)C(C)(C)C)[C@H]2[C@@H](C1=O)[C@@H]1CC[C@H]2O1 (racemic) [Compound P1]
endpoint label: pest or weed control at 125 g/ha
unit of measurement: %
test value: 80
--
molecule: CCc1ccc(-c2ccc(Cl)c(F)c2)cc1C1=C(O)[C@H]2[C@@H](C1=O)[C@@H]1CC[C@H]2O1
endpoint label: pest or weed control at 125 g/ha
unit of measurement: %
test value: 100

====

- System: Echinochloa crus-galli (ECHCG)
- method notes: Post-emergence herbicidal activity, glasshouse pot test
- Format: in vivo
- test settings: 360 h, rate 125 g/ha, evaluated 15 days later, 100=total damage to plant, 0=no damage to plant
endpoint label: pest or weed control at 125 g/ha (%)

compound: Cc1cc(-c2ccccc2)cc(C)c1C1C(=O)[C@@H]2[C@H](C1=O)[C@@]1(C)CC[C@]2(C)O1 (stereo partly drawn) [Compound T7]
test value: 100

compound: CCc1ccc(-c2ccc(Cl)c(OC)c2)cc1C1=C(O)[C@H]2[C@@H](C1=O)[C@@H]1CC[C@H]2O1 [Compound T15]
test value: 100

compound: CCc1ccc(-c2ccc(Cl)cc2)cc1C1=C(O)[C@H]2[C@@H](C1=O)[C@]1(C)C=C[C@@]2(C)O1 [Compound T12]
test value: 100

====

- System: Lolium perenne (LOLPE)
- method notes: Post-emergence herbicidal activity, glasshouse pot test
- Assay type: in vivo
- test settings: 360 h, rate 125 g/ha, evaluated 15 days later, 100=total damage to plant, 0=no damage to plant
endpoint label: pest or weed control at 125 g/ha

compound: CCc1ccc(-c2ccc(Cl)c(OC)c2)cc1C1=C(O)[C@H]2[C@@H](C1=O)[C@@H]1CC[C@H]2O1
endpoint label: pest or weed control at 125 g/ha
test value: 40%

compound: CCc1cc(-c2ccc(C)cc2)cc(CC)c1C1=C(OC(C)=O)[C@H]2[C@@H](C1=O)[C@@H]1CC[C@H]2O1
endpoint label: pest or weed control at 125 g/ha
test value: 80%

compound: CCc1ccc(-c2ccc(Cl)cc2Cl)cc1C1=C(O)[C@H]2[C@@H](C1=O)[C@@H]1CC[C@H]2O1 (racemic)
endpoint label: pest or weed control at 125 g/ha
test value: 50%

compound: CCc1ccc(-c2ccc(Cl)cc2F)cc1C1=C(O)[C@H]2[C@@H](C1=O)[C@]1(C)CC[C@@]2(C)O1 (racemic)
endpoint label: pest or weed control at 125 g/ha
test value: 70%

compound: Cc1cc(-c2ccccc2)cc(C)c1C1C(=O)[C@H]2[C@@H]3CC[C@@](C)(O3)[C@H]2C1=O (stereo partly drawn)
endpoint label: pest or weed control at 125 g/ha
test value: 70%

compound: Cc1cc(-c2ccccc2)cc(C)c1C1=C(OC(=O)C(C)(C)C)[C@H]2[C@@H](C1=O)[C@@H]1CC[C@H]2O1 (racemic) [Compound P1]
endpoint label: pest or weed control at 125 g/ha
test value: 90%

====

- System: Lolium perenne (LOLPE)
- method notes: Post-emergence herbicidal activity, glasshouse pot test
- Assay type: in vivo
- test settings: 360 h, rate 125 g/ha, evaluated 15 days later, 100=total damage to plant, 0=no damage to plant
Listing: pest or weed control at 125 g/ha of selected molecules

molecule: CCc1ccc(-c2ccc(Cl)c(F)c2F)cc1C1=C(O)[C@H]2[C@@H](C1=O)[C@]1(C)CC[C@@]2(C)O1 [Compound T38]
pest or weed control at 125 g/ha: 50%

molecule: CCc1ccc(-c2ccc(Cl)cc2)cc1C1=C(O)[C@H]2[C@@H](C1=O)[C@]1(C)C=C[C@@]2(C)O1 [Compound T12]
pest or weed control at 125 g/ha: 80%

molecule: Cc1cc(-c2ccccc2)cc(C)c1C1C(=O)[C@@H]2[C@H](C1=O)[C@@]1(C)CC[C@]2(C)O1 (stereo partly shown) [Compound T7]
pest or weed control at 125 g/ha: 60%

molecule: CCc1ccc(-c2ccc(Cl)cc2)cc1C1=C(O)[C@H]2[C@@H](C1=O)[C@@H]1CC[C@H]2O1 [Compound T2]
pest or weed control at 125 g/ha: 80%

====

- Tested on: Setaria faberi (SETFA)
- method notes: Post-emergence herbicidal activity, glasshouse pot test
- Assay type: in vivo
- test settings: 360 h, rate 125 g/ha, evaluated 15 days later, 100=total damage to plant, 0=no damage to plant
Listing: pest or weed control at 125 g/ha of selected compounds

compound: CCc1ccc(-c2ccc(Cl)c(F)c2Cl)cc1C1=C(O)[C@H]2[C@@H](C1=O)[C@]1(C)CC[C@@]2(C)O1 [Compound T37]
pest or weed control at 125 g/ha / %: 100
//
compound: CC(=O)OC1=C(c2c(C)cc(-c3ccccc3)cc2C)C(=O)[C@@H]2[C@H]1[C@@]1(C)CC[C@]2(C)O1 [Compound P6]
pest or weed control at 125 g/ha / %: 100
//
compound: CCc1ccc(-c2ccc(Cl)cc2F)cc1C1=C(O)[C@H]2[C@@H](C1=O)[C@]1(C)CC[C@@]2(C)O1 (racemic) [Compound T23]
pest or weed control at 125 g/ha / %: 90
//
compound: CCc1ccc(-c2ccc(Cl)cc2)cc1C1=C(O)[C@H]2[C@@H](C1=O)[C@]1(C)C=C[C@@]2(C)O1 [Compound T12]
pest or weed control at 125 g/ha / %: 100
//
compound: CCc1ccc(-c2ccc(Cl)s2)cc1C1=C(O)[C@H]2[C@@H](C1=O)[C@]1(C)CC[C@@]2(C)O1 [Compound T32]
pest or weed control at 125 g/ha / %: 70
//
compound: Cc1cc(-c2ccccc2)cc(C)c1C1=C(OC(=O)C(C)(C)C)[C@H]2[C@@H](C1=O)[C@@H]1CC[C@@]2(C)O1 [Compound P8]
pest or weed control at 125 g/ha / %: 100
//
compound: CCc1ccc(-c2ccc(Cl)c(C(F)(F)F)c2)cc1C1=C(O)[C@H]2[C@@H](C1=O)[C@@H]1CC[C@H]2O1 [Compound T17]
pest or weed control at 125 g/ha / %: 100
